Values compiled from ChEMBL document CHEMBL1136551.

Field: inhibition. Provide a value for each of the compounds that follow.
Molecular target: Glutamate receptor ionotropic, AMPA (Rattus norvegicus) (UniProt P19491+P19492+P19493+P19490)
Test: Percent inhibition of [3H]CP-526427 binding to Ionotropic glutamate receptor AMPA in rat forebrain membranes at 32 uM
Type: cell membranes
Settings: Membrane
Answers are plain numbers, in %.

Look over these answered cases.
{"COMPOUND": "CCCCNC(=O)n1nc(-c2ccc(N)cc2)c2cc3c(cc2c1=O)OCO3", "inhibition (%)": 0}
{"COMPOUND": "CNC(=O)N/N=C(\\c1ccc(N)cc1)c1cc2c(cc1CC(=O)OC)OCO2", "inhibition (%)": 16}
{"COMPOUND": "Nc1cccc(C2=NNC(=O)Cc3cc4c(cc32)OCO4)c1", "inhibition (%)": 31}
{"COMPOUND": "CNC(=O)N1N=C(c2ccc(N)cc2)c2cc3c(cc2CC1=O)OCO3", "inhibition (%)": 59}
{"COMPOUND": "Nc1ccc(C2NNC(=O)Cc3cc4c(cc32)OCO4)cc1 (stereo unspecified)", "inhibition (%)": 10}
{"COMPOUND": "Nc1ccc(C2=NNC(=O)Cc3cc4c(cc32)OCO4)cc1", "inhibition (%)": 74}

Dear reader, for each entry below, please note its inhibition.
1. CCCCNC(=O)N1NC(c2ccc(N)cc2)c2cc3c(cc2CC1=O)OCO3 (stereo unspecified)
2. CNC(=O)NC(=O)Cc1cc2c(cc1Cc1ccc(N)cc1)OCO2
3. CNC(=O)N1NC(c2ccc(N)cc2)c2cc3c(cc2CC1=O)OCO3 (stereo unspecified)
4. Nc1ccc(-c2nnc(O)c3cc4c(cc23)OCO4)cc1
5. CNC(=O)NC(=O)Cc1cc2c(cc1C(=O)c1ccc(N)cc1)OCO2

1: 0; 2: 0; 3: 0; 4: 13; 5: 3

----------
Biological target: Glutamate receptor ionotropic, NMDA 1 (Rattus norvegicus) (UniProt P35439)
Test: Percentage inhibition of [3H]glycine to NMDA receptors of rat cortical membranes at 32 uM
Format: cell membranes
Conditions: Membrane
Field: inhibition. Provide a value for each of the compounds that follow.
Please answer using a numeric value trailed by its unit.

{"COMPOUND": "NS(=O)(=O)c1cccc2c1c([N+](=O)[O-])cc1nc(O)c(O)nc12", "VALUE_KIND": "inhibition", "REPORTED_RESULT": "3%"}
{"COMPOUND": "Nc1ccc(C2NNC(=O)Cc3cc4c(cc32)OCO4)cc1 (stereo not drawn)", "VALUE_KIND": "inhibition", "REPORTED_RESULT": "9%"}
{"COMPOUND": "CNC(=O)N/N=C(\\c1ccc(N)cc1)c1cc2c(cc1CC(=O)OC)OCO2", "VALUE_KIND": "inhibition", "REPORTED_RESULT": "2%"}

Dear reader, for each entry below, please note its inhibition.
1. Nc1ccc(-c2nnc(O)c3cc4c(cc23)OCO4)cc1
2. Nc1cccc(C2=NNC(=O)Cc3cc4c(cc32)OCO4)c1
3. CC1=NN=C(c2ccc(N)cc2)c2cc3c(cc2C1)OCO3
4. Nc1ccc(C2=NNC(=O)Cc3cc4c(cc32)OCO4)cc1
5. CNC(=O)NC(=O)Cc1cc2c(cc1Cc1ccc(N)cc1)OCO2
6. CCCCNC(=O)n1nc(-c2ccc(N)cc2)c2cc3c(cc2c1=O)OCO3
7. CNC(=O)N1N=C(c2ccc(N)cc2)c2cc3c(cc2CC1=O)OCO3

1. 12%
2. 0%
3. 18%
4. 0%
5. 0%
6. 13%
7. 0%

Dear reader, for each entry below, please note its inhibition.
1. CCCCNC(=O)N1NC(c2ccc(N)cc2)c2cc3c(cc2CC1=O)OCO3 (stereo not drawn)
2. CNC(=O)N1NC(c2ccc(N)cc2)c2cc3c(cc2CC1=O)OCO3 (stereo not drawn)
3. CNC(=O)NC(=O)Cc1cc2c(cc1C(=O)c1ccc(N)cc1)OCO2

["13%", "12%", "11%"]

----------
Molecular target: Glutamate receptor ionotropic, NMDA 1 (Rattus norvegicus)
Experiment: Inhibition of specific binding of [3H]glycine to NMDA receptors, in rat cortical membranes at 32 uM conc.
VALUE_KIND: pIC50
Numbers only, as −log10 of the molar value.

The compound listed as O=C(O)c1cc(O)c2c(Cl)cc(Cl)cc2n1 has a reported pIC50 of 7.05
